These data points were gathered from the supplement of paper PMC7877785.

What self-splicing fitness (ln) was measured for each of the following?
assay method text: self-splicing fitness, log relative to wild type (ln ratio); higher = more splicing; Tetrahymena group I intron in knt gene, E. coli kanamycin selection, DiMSum; sequences stand for … in CUCUCU…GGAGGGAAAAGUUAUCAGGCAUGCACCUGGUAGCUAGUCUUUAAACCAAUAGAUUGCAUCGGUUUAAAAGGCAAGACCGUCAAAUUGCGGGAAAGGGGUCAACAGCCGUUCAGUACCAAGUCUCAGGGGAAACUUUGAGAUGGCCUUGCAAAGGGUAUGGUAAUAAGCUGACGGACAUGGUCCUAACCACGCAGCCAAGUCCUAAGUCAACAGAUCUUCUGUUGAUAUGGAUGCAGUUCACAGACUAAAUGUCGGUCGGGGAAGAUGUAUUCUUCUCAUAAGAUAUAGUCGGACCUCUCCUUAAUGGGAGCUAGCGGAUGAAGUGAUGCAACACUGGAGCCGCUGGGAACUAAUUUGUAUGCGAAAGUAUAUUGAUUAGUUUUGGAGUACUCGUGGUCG;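 also: selection with 25 µg/mL kanamycin versus none on LB agar overnight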
condition summary: 37 °C
Keep it simple and answer with nothing but the number.

Req: Fill in the blank: the reported self-splicing fitness (ln) of "CAACAGCAAUAUUACGGGAU" is ____.
Resp: -2.08

Req: Fill in the blank: the reported self-splicing fitness (ln) of "CGCUAGCAAUAUUACGCGGG" is ____.
Resp: -2.08

Req: Fill in the blank: the reported self-splicing fitness (ln) of "UUCUAGCAAUAUUACGGUUC" is ____.
Resp: -2.44

Req: Fill in the blank: the reported self-splicing fitness (ln) of "CACAAGCAAUAUUACGUUCU" is ____.
Resp: -2.42

Req: Fill in the blank: the reported self-splicing fitness (ln) of "ACUAAGCAAUAUUACGACUA" is ____.
Resp: -0.721

Req: Fill in the blank: the reported self-splicing fitness (ln) of "UCUUAGCAAUAUUACGUCGA" is ____.
Resp: -0.434

Req: Fill in the blank: the reported self-splicing fitness (ln) of "AUUUAGCAAUAUUACGUUCC" is ____.
Resp: -1.23

Req: Fill in the blank: the reported self-splicing fitness (ln) of "CAAUAGCAAUAUUACGUUAC" is ____.
Resp: -3.23

Req: Fill in the blank: the reported self-splicing fitness (ln) of "CAUUAGCAAUAUUACGUUUC" is ____.
Resp: -2.2

Req: Fill in the blank: the reported self-splicing fitness (ln) of "AAAUAGCAAUAUUACGCAAG" is ____.
Resp: -1.13

Req: Fill in the blank: the reported self-splicing fitness (ln) of "GAGAAGCAAUAUUACGCGUU" is ____.
Resp: -0.752

Req: Fill in the blank: the reported self-splicing fitness (ln) of "CGCAAGCAAUAUUACGCUAG" is ____.
Resp: -2.89

Req: Fill in the blank: the reported self-splicing fitness (ln) of "CUCAAGCAAUAUUACGGCCG" is ____.
Resp: -1.69

Req: Fill in the blank: the reported self-splicing fitness (ln) of "CGUGAGCAAUAUUACGCGCC" is ____.
Resp: -1.95

Req: Fill in the blank: the reported self-splicing fitness (ln) of "CAACAGCAAUAUUACGAUCG" is ____.
Resp: 0.463

Req: Fill in the blank: the reported self-splicing fitness (ln) of "AACGAGCAAUAUUACGUAUC" is ____.
Resp: -3.55

Req: Fill in the blank: the reported self-splicing fitness (ln) of "AAGAAGCAAUAUUACGGACC" is ____.
Resp: -0.312

Req: Fill in the blank: the reported self-splicing fitness (ln) of "GAUAAGCAAUAUUACGUCUC" is ____.
Resp: -0.95

Req: Fill in the blank: the reported self-splicing fitness (ln) of "UGUGAGCAAUAUUACGGAAA" is ____.
Resp: -2.61

Req: Fill in the blank: the reported self-splicing fitness (ln) of "UCCGAGCAAUAUUACGGACC" is ____.
Resp: -1.47

Req: Fill in the blank: the reported self-splicing fitness (ln) of "UCAUAGCAAUAUUACGUAGC" is ____.
Resp: -0.156

Req: Fill in the blank: the reported self-splicing fitness (ln) of "GACAAGCAAUAUUACGAAGG" is ____.
Resp: -2.27

Req: Fill in the blank: the reported self-splicing fitness (ln) of "GACCAGCAAUAUUACGCAGG" is ____.
Resp: -2.49

Req: Fill in the blank: the reported self-splicing fitness (ln) of "UAGCAGCAAUAUUACGGGAU" is ____.
Resp: -2.7

Req: Fill in the blank: the reported self-splicing fitness (ln) of "AACAAGCAAUAUUACGGUCC" is ____.
Resp: -0.282

Req: Fill in the blank: the reported self-splicing fitness (ln) of "GCCCAGCAAUAUUACGAUUG" is ____.
Resp: -2.57

Req: Fill in the blank: the reported self-splicing fitness (ln) of "CGGGAGCAAUAUUACGUUGA" is ____.
Resp: -2

Req: Fill in the blank: the reported self-splicing fitness (ln) of "GAUUAGCAAUAUUACGCCUA" is ____.
Resp: 0.169

Req: Fill in the blank: the reported self-splicing fitness (ln) of "AGAGAGCAAUAUUACGCGUC" is ____.
Resp: -0.28

Req: Fill in the blank: the reported self-splicing fitness (ln) of "GGAAAGCAAUAUUACGCAAC" is ____.
Resp: -1.02

Req: Fill in the blank: the reported self-splicing fitness (ln) of "GCUUAGCAAUAUUACGUGUG" is ____.
Resp: -1.14

Req: Fill in the blank: the reported self-splicing fitness (ln) of "CGCUAGCAAUAUUACGCACA" is ____.
Resp: -0.405

Req: Fill in the blank: the reported self-splicing fitness (ln) of "AAAGAGCAAUAUUACGGUCU" is ____.
Resp: -1.76

Req: Fill in the blank: the reported self-splicing fitness (ln) of "GACUAGCAAUAUUACGUUAG" is ____.
Resp: -3.17
